molecular target: CD117 on Kasumi-1 cells and primary human CD34+ bone marrow cells (human, UniProt P10721 26-976); assay: cell-based or functional assay
Sequence (P10721 26-976): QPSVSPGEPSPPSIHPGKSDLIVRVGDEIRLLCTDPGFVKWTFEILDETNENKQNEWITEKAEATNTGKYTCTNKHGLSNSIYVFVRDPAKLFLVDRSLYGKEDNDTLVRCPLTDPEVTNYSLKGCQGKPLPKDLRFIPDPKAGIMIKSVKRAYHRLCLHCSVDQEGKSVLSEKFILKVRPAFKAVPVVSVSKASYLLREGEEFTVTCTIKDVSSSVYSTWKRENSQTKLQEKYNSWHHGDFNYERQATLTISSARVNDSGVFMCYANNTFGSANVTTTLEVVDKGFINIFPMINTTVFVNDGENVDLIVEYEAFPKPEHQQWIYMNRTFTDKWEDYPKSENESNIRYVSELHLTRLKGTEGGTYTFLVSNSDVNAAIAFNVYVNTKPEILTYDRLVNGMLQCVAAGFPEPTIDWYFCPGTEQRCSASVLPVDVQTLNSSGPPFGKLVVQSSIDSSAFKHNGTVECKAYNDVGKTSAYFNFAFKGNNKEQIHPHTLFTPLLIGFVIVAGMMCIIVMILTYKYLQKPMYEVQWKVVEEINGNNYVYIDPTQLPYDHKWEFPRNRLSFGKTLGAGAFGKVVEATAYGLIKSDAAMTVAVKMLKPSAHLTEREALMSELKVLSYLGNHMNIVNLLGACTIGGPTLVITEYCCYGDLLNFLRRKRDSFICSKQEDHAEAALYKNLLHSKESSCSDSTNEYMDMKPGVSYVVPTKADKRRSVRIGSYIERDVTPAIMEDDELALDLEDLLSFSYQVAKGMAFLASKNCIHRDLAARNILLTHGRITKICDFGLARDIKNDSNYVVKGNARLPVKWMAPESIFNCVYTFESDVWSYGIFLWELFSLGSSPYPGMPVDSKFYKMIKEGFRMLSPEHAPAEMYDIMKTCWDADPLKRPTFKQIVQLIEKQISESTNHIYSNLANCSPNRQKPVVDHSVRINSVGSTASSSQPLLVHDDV
Measured Endpoint: % efficacy, killing of primary human CD34+CD90+ cells (%)
Give bare numbers, in %.

Some solved cases for reference:
// field: % efficacy, killing of primary human CD34+CD90+ cells; key: HC-79/LC-79 anti-CD117-ADC (conjugated to an amatoxin) (antibody, V domains shown, antibody conjugated to an amatoxin; site not stated) VH: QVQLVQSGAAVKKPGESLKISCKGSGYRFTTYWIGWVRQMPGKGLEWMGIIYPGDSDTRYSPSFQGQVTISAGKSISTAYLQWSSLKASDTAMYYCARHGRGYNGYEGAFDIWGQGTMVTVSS VL: DIQLTQSPSSLSASVGDRVTITCRASQGVGSALAWYQQKPGKAPKLLIYDASILESGVPSRFSGSGSGTDFTLTISSLQPEDFATYYCQQFNSYPLTFGGGTKVEIK ; value = 63.4

// field: % efficacy, killing of primary human CD34+CD90+ cells; key: HC-249/LC-249 ADC (Ab249 conjugated to an amatoxin) (antibody, V domains shown, antibody conjugated to an amatoxin; site not stated) VH: EVQLVQSGAEVKKPGESLKISCKGSGYRFTTSWIGWVRQMPGKGLEWMGIIYPGDSDTRYSPSFQGQVTISADKSISTAYLQWSSLKASDTAMYYCARHGLGYNGYEGAFDIWGQGTLVTVSS VL: DIQMTQSPSSLSASVGDRVTITCRASQGIGSALAWYQQKPGKAPKLLIYDASNLETGVPSRFSGSGSGTDFTLTISSLQPEDFATYYCQQLNGYPLTFGQGTRLEIK ; value = 52

Next:
// field: % efficacy, killing of primary human CD34+CD90+ cells; key: CD117-ADC (anti-CD117 antibody CK6 conjugated to amatoxin) (antibody, V domains shown, antibody conjugated to an amatoxin; site and linker not stated for this assay) VH: QVQLVQSGAAVKKPGESLKISCKGSGYRFTSYWIGWVRQMPGKGLEWMGIIYPGDSDTRYSPSFQGQVTISAGKSISTAYLQWSSLKASDTAMYYCARHGRGYNGYEGAFDIWGQGTMVTVSS VL: AIQLTQSPSSLSASVGDRVTITCRASQGISSALAWYQQKPGKAPKLLIYDASSLESGVPSRFSGSGSGTDFTLTISSLQPEDFATYYCQQFNSYPLTFGGGTKVEIK ; value = 70.8
